# STUDY SYSTEM: IGF1R (Homo sapiens)
# Construct: K562 cell pellets were thawed on ice and resuspended in cold Lysis buffer; endogenous in cells
# PROTOCOL DETAILS: KAM-matrix competition in K562 lysate
# RECORDED CONDITIONS: read-out: RB50 (the source's name)
# Description: Supplement 12953_2017_125_MOESM1_ESM.zip/MS_Supp Info.xlsx, sheet "KAM" | column: 10 uM KAM; 1 uM KAM; 0.1 uM KAM; 0.01 uM KAM; 0.001 uM KAM; RB50
pIC50: −log10 of the molar value.

MOLECULAR STRING	STUDY SYSTEM	pIC50
N#CCc1ccc(Nc2nc(NCCCN)cc(Nc3cc(C4CC4)[nH]n3)n2)cc1	IGF1R (Homo sapiens)	6.16

* * *

# STUDY SYSTEM: TRRAP (Homo sapiens, UniProt Q9Y4A5)
# Construct: endogenous in cells; host or cells: K562
# Sequence (Q9Y4A5 whole entry): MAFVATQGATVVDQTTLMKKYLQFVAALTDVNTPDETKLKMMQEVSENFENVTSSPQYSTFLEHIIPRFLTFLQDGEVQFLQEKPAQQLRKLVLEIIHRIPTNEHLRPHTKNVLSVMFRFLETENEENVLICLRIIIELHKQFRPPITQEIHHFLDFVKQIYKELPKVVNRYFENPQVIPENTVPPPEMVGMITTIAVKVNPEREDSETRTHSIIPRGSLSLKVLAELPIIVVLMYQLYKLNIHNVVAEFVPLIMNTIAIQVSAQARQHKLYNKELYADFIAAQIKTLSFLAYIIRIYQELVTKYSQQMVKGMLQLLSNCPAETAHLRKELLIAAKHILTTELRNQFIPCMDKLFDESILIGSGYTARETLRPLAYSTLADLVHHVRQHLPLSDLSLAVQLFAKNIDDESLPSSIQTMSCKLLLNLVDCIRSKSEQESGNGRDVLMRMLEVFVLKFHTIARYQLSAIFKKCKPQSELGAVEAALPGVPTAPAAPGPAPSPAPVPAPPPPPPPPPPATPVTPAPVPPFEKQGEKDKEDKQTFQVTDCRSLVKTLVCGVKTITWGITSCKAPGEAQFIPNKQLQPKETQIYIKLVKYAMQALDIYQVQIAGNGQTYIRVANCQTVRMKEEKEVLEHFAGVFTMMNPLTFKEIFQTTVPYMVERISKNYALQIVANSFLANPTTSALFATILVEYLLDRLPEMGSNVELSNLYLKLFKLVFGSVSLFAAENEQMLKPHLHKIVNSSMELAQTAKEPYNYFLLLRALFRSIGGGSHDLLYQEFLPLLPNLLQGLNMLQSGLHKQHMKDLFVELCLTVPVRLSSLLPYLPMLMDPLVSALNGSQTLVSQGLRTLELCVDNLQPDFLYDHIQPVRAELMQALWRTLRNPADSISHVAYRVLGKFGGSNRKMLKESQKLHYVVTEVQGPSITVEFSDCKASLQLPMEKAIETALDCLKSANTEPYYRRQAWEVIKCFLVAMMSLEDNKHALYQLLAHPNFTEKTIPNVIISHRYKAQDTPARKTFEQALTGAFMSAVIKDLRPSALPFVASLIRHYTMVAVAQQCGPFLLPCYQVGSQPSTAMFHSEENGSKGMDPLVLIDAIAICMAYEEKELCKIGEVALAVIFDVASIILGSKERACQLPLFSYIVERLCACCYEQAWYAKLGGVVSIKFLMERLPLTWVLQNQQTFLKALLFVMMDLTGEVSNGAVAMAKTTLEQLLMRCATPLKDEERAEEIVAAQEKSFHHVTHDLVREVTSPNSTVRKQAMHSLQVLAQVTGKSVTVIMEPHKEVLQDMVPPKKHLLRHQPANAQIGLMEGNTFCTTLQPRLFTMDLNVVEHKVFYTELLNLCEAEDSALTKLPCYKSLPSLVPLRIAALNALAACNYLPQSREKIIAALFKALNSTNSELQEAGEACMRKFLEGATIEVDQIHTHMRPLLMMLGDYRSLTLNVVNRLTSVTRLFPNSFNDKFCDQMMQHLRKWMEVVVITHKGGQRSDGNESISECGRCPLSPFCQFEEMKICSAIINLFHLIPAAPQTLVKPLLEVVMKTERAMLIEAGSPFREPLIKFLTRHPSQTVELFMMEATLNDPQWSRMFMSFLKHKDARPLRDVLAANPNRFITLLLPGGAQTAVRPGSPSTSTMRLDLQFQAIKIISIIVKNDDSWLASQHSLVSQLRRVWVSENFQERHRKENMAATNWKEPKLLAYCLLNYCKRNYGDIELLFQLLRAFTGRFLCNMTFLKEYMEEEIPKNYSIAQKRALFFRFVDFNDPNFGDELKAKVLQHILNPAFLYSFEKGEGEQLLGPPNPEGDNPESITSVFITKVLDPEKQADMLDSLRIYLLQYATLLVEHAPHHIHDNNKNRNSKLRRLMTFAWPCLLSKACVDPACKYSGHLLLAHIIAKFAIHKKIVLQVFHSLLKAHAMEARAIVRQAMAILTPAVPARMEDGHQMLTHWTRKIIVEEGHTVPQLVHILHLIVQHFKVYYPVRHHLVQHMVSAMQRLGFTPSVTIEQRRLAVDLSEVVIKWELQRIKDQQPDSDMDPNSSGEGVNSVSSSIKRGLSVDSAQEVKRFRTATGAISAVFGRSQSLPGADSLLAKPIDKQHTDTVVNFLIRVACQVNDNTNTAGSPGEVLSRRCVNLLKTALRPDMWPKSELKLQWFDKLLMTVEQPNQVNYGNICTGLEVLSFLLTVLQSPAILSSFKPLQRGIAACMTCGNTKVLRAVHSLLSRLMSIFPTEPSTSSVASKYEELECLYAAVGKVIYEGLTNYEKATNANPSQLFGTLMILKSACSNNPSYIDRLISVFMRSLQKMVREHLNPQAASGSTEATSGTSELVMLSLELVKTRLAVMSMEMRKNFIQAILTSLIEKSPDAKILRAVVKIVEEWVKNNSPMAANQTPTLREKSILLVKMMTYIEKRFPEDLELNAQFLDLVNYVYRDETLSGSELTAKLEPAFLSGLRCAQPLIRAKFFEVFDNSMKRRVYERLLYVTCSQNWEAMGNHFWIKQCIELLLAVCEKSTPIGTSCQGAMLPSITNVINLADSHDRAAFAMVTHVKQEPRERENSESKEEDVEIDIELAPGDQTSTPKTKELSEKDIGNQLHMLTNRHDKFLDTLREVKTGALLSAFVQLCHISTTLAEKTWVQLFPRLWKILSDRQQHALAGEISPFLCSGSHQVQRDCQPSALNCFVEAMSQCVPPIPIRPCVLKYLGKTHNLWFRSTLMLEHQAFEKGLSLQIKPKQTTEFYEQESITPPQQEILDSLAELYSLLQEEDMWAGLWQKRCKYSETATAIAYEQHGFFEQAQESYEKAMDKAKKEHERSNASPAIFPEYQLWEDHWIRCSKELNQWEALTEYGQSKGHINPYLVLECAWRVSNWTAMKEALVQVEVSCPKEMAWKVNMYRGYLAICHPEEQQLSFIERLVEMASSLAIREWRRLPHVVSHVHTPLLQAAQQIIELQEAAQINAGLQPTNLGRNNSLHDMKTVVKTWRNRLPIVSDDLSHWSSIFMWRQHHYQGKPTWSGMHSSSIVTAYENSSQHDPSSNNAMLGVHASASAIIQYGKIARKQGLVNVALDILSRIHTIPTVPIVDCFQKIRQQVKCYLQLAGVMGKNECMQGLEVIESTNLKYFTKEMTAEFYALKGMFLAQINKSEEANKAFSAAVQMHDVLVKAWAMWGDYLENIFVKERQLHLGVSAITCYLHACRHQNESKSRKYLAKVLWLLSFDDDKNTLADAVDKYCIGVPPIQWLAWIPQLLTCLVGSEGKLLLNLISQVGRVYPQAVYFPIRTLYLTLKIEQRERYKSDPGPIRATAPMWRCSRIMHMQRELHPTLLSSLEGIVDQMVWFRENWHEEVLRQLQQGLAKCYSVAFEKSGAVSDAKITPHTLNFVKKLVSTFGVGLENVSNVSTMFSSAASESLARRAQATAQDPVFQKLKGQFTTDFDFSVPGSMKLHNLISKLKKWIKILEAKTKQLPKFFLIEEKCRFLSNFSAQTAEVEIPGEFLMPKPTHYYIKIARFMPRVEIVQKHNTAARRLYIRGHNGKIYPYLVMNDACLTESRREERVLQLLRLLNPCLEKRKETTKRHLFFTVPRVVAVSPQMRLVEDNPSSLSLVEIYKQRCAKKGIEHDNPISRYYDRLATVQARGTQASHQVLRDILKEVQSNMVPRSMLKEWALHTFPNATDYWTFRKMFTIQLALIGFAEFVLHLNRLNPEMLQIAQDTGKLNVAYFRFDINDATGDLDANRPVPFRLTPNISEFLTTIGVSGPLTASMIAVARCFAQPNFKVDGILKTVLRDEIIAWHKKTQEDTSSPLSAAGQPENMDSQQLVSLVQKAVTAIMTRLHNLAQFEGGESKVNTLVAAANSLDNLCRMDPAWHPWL
# PROTOCOL DETAILS: KAM-matrix competition in K562 lysate
# Assay type: binding
# RECORDED CONDITIONS: KAM 0.001-10 uM, read-out: RB50 (the source's name)
REPORTED ENDPOINT: IC50

COMPOUND	OBS VALUE
N#CCc1ccc(Nc2nc(NCCCN)cc(Nc3cc(C4CC4)[nH]n3)n2)cc1 [KAM]	> 10 µM

* * *

# STUDY SYSTEM: GSK3B (Homo sapiens, UniProt P49841)
# Construct: endogenous in cells; host or cells: K562
# Sequence (P49841 whole entry): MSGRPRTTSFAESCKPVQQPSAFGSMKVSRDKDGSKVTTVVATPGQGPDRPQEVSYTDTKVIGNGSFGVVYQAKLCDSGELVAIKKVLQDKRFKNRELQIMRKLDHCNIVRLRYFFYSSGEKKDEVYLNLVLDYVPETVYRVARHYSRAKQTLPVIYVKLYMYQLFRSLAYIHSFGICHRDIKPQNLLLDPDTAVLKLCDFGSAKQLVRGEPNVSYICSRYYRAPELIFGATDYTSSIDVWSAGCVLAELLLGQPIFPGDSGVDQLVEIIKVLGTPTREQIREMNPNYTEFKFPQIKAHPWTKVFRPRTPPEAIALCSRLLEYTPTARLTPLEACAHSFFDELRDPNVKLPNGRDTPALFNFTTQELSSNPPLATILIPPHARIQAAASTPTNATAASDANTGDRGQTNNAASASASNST
# PROTOCOL DETAILS: KAM-matrix competition in K562 lysate
# Assay type: binding
# RECORDED CONDITIONS: GSK3B; KAM-based affinity matrix, K562 lysates; read-out: RB50 (the source's name)
pIC50: −log10 of the molar value.
REPORTED ENDPOINT: pIC50

COMPOUND	OBS VALUE
N#CCc1ccc(Nc2nc(NCCCN)cc(Nc3cc(C4CC4)[nH]n3)n2)cc1 [KAM]	7.35

* * *

# STUDY SYSTEM: CAMKK2 (Homo sapiens, UniProt Q96RR4)
# Construct: endogenous in cells
# Sequence (Q96RR4 whole entry): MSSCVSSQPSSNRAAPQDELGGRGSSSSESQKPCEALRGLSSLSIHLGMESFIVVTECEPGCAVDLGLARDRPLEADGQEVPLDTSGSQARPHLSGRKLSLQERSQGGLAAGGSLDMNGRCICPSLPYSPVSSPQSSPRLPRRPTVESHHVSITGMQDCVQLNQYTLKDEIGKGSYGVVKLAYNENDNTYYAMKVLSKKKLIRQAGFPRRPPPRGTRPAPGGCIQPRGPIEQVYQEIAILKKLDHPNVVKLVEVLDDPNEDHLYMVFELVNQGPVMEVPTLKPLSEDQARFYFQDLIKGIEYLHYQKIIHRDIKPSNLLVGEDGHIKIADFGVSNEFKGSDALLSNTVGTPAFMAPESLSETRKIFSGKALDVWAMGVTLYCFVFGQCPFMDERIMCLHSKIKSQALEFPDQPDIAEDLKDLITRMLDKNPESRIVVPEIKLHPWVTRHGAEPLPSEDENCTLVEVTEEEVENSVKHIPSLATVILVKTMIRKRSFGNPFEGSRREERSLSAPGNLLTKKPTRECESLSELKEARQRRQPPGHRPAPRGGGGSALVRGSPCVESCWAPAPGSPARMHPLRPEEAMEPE
# PROTOCOL DETAILS: KAM-matrix competition in K562 lysate
# RECORDED CONDITIONS: read-out: RB50 (the source's name)
REPORTED ENDPOINT: IC50 (nM)

MOLECULAR STRING	UNITS TEXT	OBS VALUE
N#CCc1ccc(Nc2nc(NCCCN)cc(Nc3cc(C4CC4)[nH]n3)n2)cc1	nM	553

* * *

# STUDY SYSTEM: TBK1 (Homo sapiens)
# Construct: endogenous in cells
# Sequence (Q9UHD2 1-729): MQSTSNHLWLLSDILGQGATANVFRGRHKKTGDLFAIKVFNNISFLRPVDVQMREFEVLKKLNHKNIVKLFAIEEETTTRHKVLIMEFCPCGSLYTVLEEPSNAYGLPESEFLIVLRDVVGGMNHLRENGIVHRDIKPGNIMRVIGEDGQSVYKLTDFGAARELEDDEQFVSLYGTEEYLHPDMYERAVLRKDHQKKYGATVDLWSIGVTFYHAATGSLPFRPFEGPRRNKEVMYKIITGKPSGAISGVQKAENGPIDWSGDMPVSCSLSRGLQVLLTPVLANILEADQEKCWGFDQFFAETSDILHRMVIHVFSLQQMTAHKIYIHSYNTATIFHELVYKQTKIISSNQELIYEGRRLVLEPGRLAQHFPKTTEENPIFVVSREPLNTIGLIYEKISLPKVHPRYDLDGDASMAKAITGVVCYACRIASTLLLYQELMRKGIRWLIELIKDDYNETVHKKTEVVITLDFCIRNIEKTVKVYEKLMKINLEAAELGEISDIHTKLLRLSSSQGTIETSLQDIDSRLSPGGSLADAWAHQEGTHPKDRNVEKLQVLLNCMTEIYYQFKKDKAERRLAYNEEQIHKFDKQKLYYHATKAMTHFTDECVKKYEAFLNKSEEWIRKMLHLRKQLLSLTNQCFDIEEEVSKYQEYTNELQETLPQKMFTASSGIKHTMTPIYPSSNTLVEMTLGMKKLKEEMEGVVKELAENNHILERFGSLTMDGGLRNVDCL
# PROTOCOL DETAILS: KAM-matrix competition in K562 lysate
# RECORDED CONDITIONS: read-out: RB50 (the source's name)
pIC50: −log10 of the molar value.
REPORTED ENDPOINT: pIC50

MOLECULAR STRING	STUDY SYSTEM	REPORTED ENDPOINT	OBS VALUE
N#CCc1ccc(Nc2nc(NCCCN)cc(Nc3cc(C4CC4)[nH]n3)n2)cc1	TBK1 (Homo sapiens)	pIC50	6.34
